test system: CEM-DNR; test: Antiproliferative activity against human CEM-DNR cells; type: functional, cell-based
PROPERTY: pIC50
Just the number, please; pIC50 means minus log10 of the concentration in mol/L.

Query the reported pIC50 for CEM-DNR; item: O=C(N1CCC2(CC1)C(=O)Nc1ncc(-c3ccc4c(c3)OCO4)cc12)C1(F)CC1
4.92

Query the reported pIC50 for CEM-DNR; item: CC(C)(F)C(=O)N1CCC2(CC1)C(=O)Nc1ncc(-c3ccc4c(c3)OCO4)cc12
5.22

Query the reported pIC50 for CEM-DNR; item: COC(=O)C1(C(=O)N2CCC3(CC2)C(=O)Nc2ncc(-c4ccc5c(c4)OCO5)cc23)CC1
4.69

====

Target: Tyrosine-protein kinase ITK/TSK (Homo sapiens)
Sequence (Q08881 whole entry): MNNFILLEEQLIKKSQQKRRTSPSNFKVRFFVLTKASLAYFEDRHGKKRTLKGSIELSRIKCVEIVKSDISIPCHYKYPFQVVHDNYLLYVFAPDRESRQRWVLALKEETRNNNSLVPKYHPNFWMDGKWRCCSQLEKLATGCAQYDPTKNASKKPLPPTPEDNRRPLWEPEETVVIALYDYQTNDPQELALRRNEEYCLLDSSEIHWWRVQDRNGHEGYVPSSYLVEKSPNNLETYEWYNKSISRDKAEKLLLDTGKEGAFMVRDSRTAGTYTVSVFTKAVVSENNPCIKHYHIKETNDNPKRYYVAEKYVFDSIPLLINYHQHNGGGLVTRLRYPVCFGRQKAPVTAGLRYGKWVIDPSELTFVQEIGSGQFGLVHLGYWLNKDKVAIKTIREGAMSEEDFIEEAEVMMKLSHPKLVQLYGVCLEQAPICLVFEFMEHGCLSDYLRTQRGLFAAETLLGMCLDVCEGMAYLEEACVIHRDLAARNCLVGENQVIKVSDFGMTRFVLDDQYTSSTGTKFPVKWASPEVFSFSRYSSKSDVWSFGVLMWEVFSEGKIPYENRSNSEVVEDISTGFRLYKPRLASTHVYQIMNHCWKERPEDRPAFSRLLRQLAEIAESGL
PROPERTY: IC50 (nM)
Supply the numeric figure in nM, leaving out any unit text.

What does the record list as IC50 for CC(F)(F)C(=O)N1CCC2(CC1)C(=O)Nc1ncc(-c3ccc4c(c3)OCO4)cc12 ?
910

====

test system: Jurkat; assay: Antiproliferative activity against human Jurkat cells; format: functional, cell-based
PROPERTY: IC50

molecular_string=O=C(N1CCC2(CC1)C(=O)Nc1ncc(-c3ccc4c(c3)OCO4)cc12)C1(F)CC1 assay_value="2250 nM"
molecular_string=COC(=O)C1(C(=O)N2CCC3(CC2)C(=O)Nc2ncc(-c4cc(OC)c(OC)c(OC)c4)cc23)CC1 assay_value="> 50000 nM"
molecular_string=COC(=O)C1(C(=O)N2CCC3(CC2)C(=O)Nc2ncc(-c4ccc5c(c4)OCO5)cc23)CC1 assay_value="14800 nM"

# ---- query compound ----
What does the record list as IC50 for CC(C)(F)C(=O)N1CCC2(CC1)C(=O)Nc1ncc(-c3ccc4c(c3)OCO4)cc12 ?
2490 nM

====

test: Cytotoxicity against ITK/BTK null human MRC5 cells assessed as inhibition of cell growth by MTS assay; assay type: toxicity, cell-based
PROPERTY: IC50

Example compounds with recorded IC50:
compound="C=CC(=O)N1CCC[C@@H](n2nc(-c3ccc(Oc4ccccc4)cc3)c3c(N)ncnc32)C1 [IBRUTINIB]" property=IC50 assay_value="27.9 µM"
compound=CCOC(=O)C(C)(C)C(=O)N1CCC2(CC1)C(=O)Nc1ncc(-c3ccc4c(c3)OCO4)cc12 property=IC50 assay_value="> 50 µM"
compound=C=C(F)C(=O)N1CCC2(CC1)C(=O)Nc1ncc(-c3ccc4c(c3)OCO4)cc12 property=IC50 assay_value="> 50 µM"

# ---- query compound ----
What does the record list as IC50 for C=CC(=O)N1CCC2(CC1)C(=O)Nc1ncc(-c3ccc4c(c3)OCO4)cc12 ?
> 50 µM
